Data credit: patent US20230141988A1

test: Plasma and CSF pharmacokinetic study, single sublingual, oral or subcutaneous dose, male Beagle dogs; type: in vivo; conditions: male, beagle, dog, in vivo, sc, 1 mg/kg, CSF concentration
parameter: concentration at 0.5 h (ng/mL)
Give the number; ng/mL is assumed, so skip it.

# input Find the recorded concentration at 0.5 h belonging to CN1CCc2cccc3c2[C@@H]1Cc1ccc(O)c(O)c1-3 and report it.
# output 15.6

----------
experiment: Plasma and CSF pharmacokinetic study, single sublingual, oral or subcutaneous dose, male Beagle dogs; assay type: in vivo; conditions: male, beagle, dog, in vivo, 5 mg/kg, male Beagle dogs (fasted), single SL 5 mg/kg, CSF, mean
parameter: AUC(0-t) (ng·h/mL)
Field: numeric (ng·h/mL). Do not append units.

# input Requested field: AUC(0-t). Item: CN1CCc2cccc3c2[C@@H]1Cc1ccc(O)c(O)c1-3
# output 162
